TGI values for the compounds below.
# Tested on: SN12C renal
# assay remarks: NCI tumour cell line growth inhibition, 48 h

| compound | observed result |
| --- | --- |
| CN(C)Cc1ccc(NC(=O)c2cncc(C#Cc3cnc(N)c4ncccc34)c2)cc1C(F)(F)F | 3.02 µM |
| COc1ccc2nc3cc(Cl)ccc3c(Sc3ccc(N)cc3)c2c1 | 24 µM |
| COc1cc(/C=C/C(=O)CC(=O)/C=C/c2cc(C)c(O)c(OC)c2)cc(C)c1O | > 100 µM |
| O=NNc1ccc(-c2ccccc2)cn1 | > 35.1 µM |
| CC(C#N)(NO)C(C)(C#N)NO (configuration not stated) | > 100 µM |
| Cc1c(C)c2cc3c(=O)c(CCl)coc3c(C)c2oc1=O | > 100 µM |

Exercise: Query (compound): N[C@H]1CCC[C@@H](O)C1O (some centres not stated) ; field requested: TGI
Key: > 100 µM

Exercise: // TGI lookup, key: COc1ccc2c(=O)c(-c3cc(OC)c(OC)cc3OC)coc2c1
Key: > 100 µM

Exercise: Look up TGI: COC(=O)C1(Cc2ccc3c(c2)CCC3)Cc2ccc3c(c2C1=O)CCC3 (configuration not stated)
Key: > 100 µM

Exercise: Entry under review: COC(=O)c1ccc(OCCn2nnc(C(=O)NN)c2C(=O)NN)cc1 . Reported TGI?
Key: > 100 µM

Exercise: Which TGI is reported for this compound? O=C1c2ccccc2C(=O)c2c1ccc1conc21
Key: 3.61 µM

Exercise: Consider the compound O=C(N/N=C\c1ccc(Cl)cc1)Nc1ccc2ccccc2c1 and give its measured TGI.
Key: > 100 µM

----------
# Test system: MCF7 breast
# assay remarks: NCI tumour cell line growth inhibition, 48 h
endpoint label: TGI

See these solved cases before continuing.
| molecule | observed result |
| --- | --- |
| O=C(CSSCC(=O)c1ccc(Cl)cc1)c1ccc(Cl)cc1 | 17.8 µM |
| C[C@H]1C[C@@H](n2c(Nc3ccc(OC(F)(F)F)cc3)nc3cc(CCC(=O)O)ccc32)CC(C)(C)C1 | 22.6 µM |
| Nc1c(C(=O)c2cccc(-c3cccnc3)c2)cnn1-c1ccc(F)cc1 | > 25 µM |
| CC(C)(C)OC(=O)NC(CSCc1ccc(C(=O)c2ccccc2)cc1)C(=O)N1CCN(CCCCN2c3ccccc3Sc3cc(N=[N+]=[N-])ccc32)CC1 (centres undefined) | > 100 µM |
| O=C1OC(c2ccc([N+](=O)[O-])cc2)=N/C1=C\c1ccc(Cl)cc1 | > 100 µM |
| COC(=O)NC1(NC(=O)OC)NC(=O)c2ccccc2N1 | > 100 µM |
| COC(=O)c1ccc(OCCn2nnc(C(=O)NN)c2C(=O)NN)cc1 | > 100 µM |
| CN(C)S(=O)(=O)c1cccc(C(=O)Nc2nc(-c3ccc(F)c(F)c3)cs2)c1 | > 65 µM |

Next item in the queue.
Exercise: Which TGI value belongs to COC(=O)[C@@]12CSC[C@]1(C(=O)OC)N[C@@H](c1ccccc1O)C2 ?
Key: > 100 µM

----------
Quick reference: TGI of the listed items.
# System: SNB-75 CNS
# assay remarks: NCI tumour cell line growth inhibition, 48 h

Worked examples follow.
| compound | endpoint label | observed result |
| --- | --- | --- |
| N[C@H]1CCC[C@@H](O)C1O (stereo not given in full) | TGI | > 100 µM |
| CN(C)CCNC(=O)c1ccc2c(c1)oc1cc3ccccc3c(=O)n12 | TGI | 27.4 µM |
| CC1=NNC(=O)C1C1(C(=O)O)CC(c2c[nH]c3ccccc23)=NC(=S)N1 (stereo not given) | TGI | 62.9 µM |
| CCC(C)C(Nc1c2ccccc2nc2c(C(=O)NCCN(C)C)cccc12)C(=O)O (stereo not given) | TGI | 61.8 µM |
| CC1=C[P+](c2ccccc2)(c2ccccc2)c2ccccc2O1 | TGI | > 100 µM |
| CC(C)(C)OC(=O)NCCCCCCCCCn1c2c(c3ccccc3c1=O)C(=O)c1ccccc1-2 | TGI | 36.8 µM |
| CCN(Cc1cc(Cl)cc(C)c1O)Cc1c(O)ccc2ccccc12 | TGI | 24.1 µM |
| O=[N+]([O-])c1ccc2c(c1)nc1n2C(c2c(F)cccc2F)SC1 (stereo not given) | TGI | > 100 µM |

Exercise: # value lookup — system SNB-75 CNS, readout TGI, item CCOC(CBr)OC1C(=O)OCC1(C)C (stereo not given)
Key: > 100 µM

Exercise: Param readout = TGI; param system = SNB-75 CNS; param query = CCCCC[C@@H]1CCCC2NC(CCCCCO[Si](c3ccccc3)(c3ccccc3)C(C)(C)C)CCC21 (stereo not given in full) ; response: value
Key: 30 µM

Exercise: # value lookup — system SNB-75 CNS, readout TGI, item O=C(COc1cc(=O)oc2ccccc12)c1ccccc1
Key: > 100 µM

Exercise: State its TGI on SNB-75 CNS: COc1cc(C[C@@]2(C)[C@@H]3CCC[C@H](CO)[C@@]3(C)CC[C@@H]2C)c(Cl)c(OC)c1
Key: 31.9 µM

Exercise: Missing value: TGI, SNB-75 CNS, entry COc1ccccc1/C=C1\C(=O)N(C(=O)Cc2ccccc2)N=C1C . Fill in?
Key: > 100 µM

Exercise: What is its TGI for SNB-75 CNS? Entry: O=C1OC(c2ccc([N+](=O)[O-])cc2)=N/C1=C\c1ccc(Cl)cc1
Key: > 100 µM

Exercise: Can you look up TGI on SNB-75 CNS for Cc1nc(-n2nc(-c3ccccc3)cc2-c2ccccc2)sc1C(=O)CC(=O)C(=O)Nc1ccc(Cl)c(Cl)c1 ?
Key: > 100 µM

Exercise: Request - read-out TGI | tested on SNB-75 CNS | compound CC(C#N)(NO)C(C)(C#N)NO (stereo not given)
Key: > 100 µM

Exercise: Tell me reported TGI for CN1CCN(C2=C(Cl)C(=O)c3ccccc3C2=O)CC1 , tested with SNB-75 CNS.
Key: 4.91 µM

Exercise: Please state recorded TGI (tested on SNB-75 CNS) of CC1[C@@]2(O[C@@H]3C=C4C5CCC6Cc7nc8c(nc7C[C@@]6(C)C5C[C@H](O)[C@@]4(C)[C@]13O)CC1CCc3c(cc4c5c3C(O)C[C@H]5[C@@H](C)C3(O4)OC(C)(C)CC3O)[C@]1(C)C8)O[C@@](C)(CO)C[C@@H]2O (stereo not given in full)
Key: 0.372 µM

Exercise: Record COc1ccc(-n2nc(C)c3c(Nc4ccc(NC(=O)Nc5cccc(C(F)(F)F)c5)cc4)ncnc32)cc1 : what is its TGI with SNB-75 CNS?
Key: 3.03 µM

Exercise: TGI of CN(C)N1C(=O)C(=O)N(c2cccc3ccccc23)C1=O on SNB-75 CNS?
Key: > 10 µM
